Source: patent US20180230200A1

Quick list: Binding Inhibition (%) per entry.
Molecular target: T1, gH/gL/UL128/UL130/UL131A pentamer complex expressed from MVA-PC in BHK-21 cells (human cytomegalovirus, UniProt P12824 24-743; P16832 31-278; P16837 28-171; P16772 1-214; F5HET4 19-129)
T1 construct: whole, on cells
Experiment: FC competition, MVA-PC BHK-21; unlabelled row Ab; competitor: biotinylated 2-80; further: test concentration or dose not given here
Give just the numeric value; % need not be written.

For orientation, consider the following solved cases.
62-100 (antibody, V domains shown, also called NAb 62-100) VH: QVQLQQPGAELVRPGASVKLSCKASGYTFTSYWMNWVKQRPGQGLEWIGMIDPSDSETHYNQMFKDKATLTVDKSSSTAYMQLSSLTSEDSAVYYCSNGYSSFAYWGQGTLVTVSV VL: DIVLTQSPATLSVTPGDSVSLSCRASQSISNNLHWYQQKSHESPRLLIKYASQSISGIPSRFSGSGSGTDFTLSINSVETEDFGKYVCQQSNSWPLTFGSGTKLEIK :: 57
62-11 (antibody, V domains shown, also called NAb 62-11) VH: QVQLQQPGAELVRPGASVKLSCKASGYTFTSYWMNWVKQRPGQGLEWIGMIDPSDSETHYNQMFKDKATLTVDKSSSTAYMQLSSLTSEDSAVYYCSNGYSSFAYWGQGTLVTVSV VL: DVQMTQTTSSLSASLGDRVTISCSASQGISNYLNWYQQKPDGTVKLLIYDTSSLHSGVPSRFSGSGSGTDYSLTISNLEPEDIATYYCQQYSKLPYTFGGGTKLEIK :: 54
18F10 (antibody, V domains shown, also called NAb 18F10) VH: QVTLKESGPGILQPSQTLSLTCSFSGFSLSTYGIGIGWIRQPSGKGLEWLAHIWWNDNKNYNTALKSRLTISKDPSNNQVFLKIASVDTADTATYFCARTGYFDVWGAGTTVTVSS VL: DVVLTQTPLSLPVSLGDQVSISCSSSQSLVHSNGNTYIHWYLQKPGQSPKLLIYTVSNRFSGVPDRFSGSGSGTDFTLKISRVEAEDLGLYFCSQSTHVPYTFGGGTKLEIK :: 0

Moving on to the next binder.
Entry 2-80 (antibody, V domains shown, also called NAb 2-80) VH: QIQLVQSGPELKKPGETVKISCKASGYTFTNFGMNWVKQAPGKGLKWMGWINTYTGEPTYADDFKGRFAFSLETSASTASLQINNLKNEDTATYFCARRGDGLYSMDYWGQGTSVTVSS VL: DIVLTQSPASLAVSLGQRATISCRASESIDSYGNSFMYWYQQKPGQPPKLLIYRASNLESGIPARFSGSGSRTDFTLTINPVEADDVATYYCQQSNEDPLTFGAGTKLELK has what Binding Inhibition (%)? 100
